Molecular target: Oxytocin receptor (Rattus norvegicus)
Sequence (P70536 whole entry): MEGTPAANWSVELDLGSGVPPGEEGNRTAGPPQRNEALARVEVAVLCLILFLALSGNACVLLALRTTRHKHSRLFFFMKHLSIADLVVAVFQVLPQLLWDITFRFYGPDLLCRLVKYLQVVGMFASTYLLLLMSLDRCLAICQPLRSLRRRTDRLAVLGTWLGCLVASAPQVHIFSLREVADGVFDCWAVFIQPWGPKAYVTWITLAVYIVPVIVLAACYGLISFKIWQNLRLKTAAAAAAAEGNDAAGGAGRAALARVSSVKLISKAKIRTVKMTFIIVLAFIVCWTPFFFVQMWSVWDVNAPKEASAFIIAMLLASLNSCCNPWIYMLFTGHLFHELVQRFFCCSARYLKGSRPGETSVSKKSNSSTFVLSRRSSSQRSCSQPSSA
Can you tell me pIC50 for the items I'm about to list?
Give bare numbers, as −log10 of the molar value.

MOLECULE: O=C(Cn1cc(C(F)(F)F)ccc1=O)NCc1cc2cc(C(=O)N3CCC(N4C(=O)OCc5ccccc54)CC3)ccc2o1
SYSTEM TESTED: Oxytocin receptor (Rattus norvegicus)
MEASURED ATTRIBUTE: pIC50
QUANTITATIVE RESULT: 5.52

For this molecule ( O=C(Cn1cc(C(F)(F)F)ccc1=O)NCc1cc2cc(C(=O)N3CCC(N4C(=O)OCc5ccccc54)CC3)cnc2o1 ), measured pIC50 is 6.13

====

Can you tell me Ki for the items I'm about to list?
Target: Oxytocin receptor (Homo sapiens)
Assay: Displacement of 3[H]oxytocin from human oxytocin receptor
One number for each entry, in nM.

Provide Ki values for the following items, in order.
1. O=C(Cn1cc(C(F)(F)F)ccc1=O)NCc1cc2cc(C(=O)N3CCC(N4C(=O)OCc5ccc(F)cc54)CC3)ccc2o1
2. O=C(Cn1ccc(N2CCOCC2)nc1=O)NCc1cc2cc(C(=O)N3CCC(N4C(=O)OCc5ccccc54)CC3)ccc2o1
3. O=C(c1ccc2oc(CN3CCC(n4cc(C(F)(F)F)ccc4=O)CC3)cc2c1)N1CCC(N2C(=O)OCc3ccccc32)CC1
4. O=C(c1ccc2oc(-c3cccc(Cn4cc(C(F)(F)F)ccc4=O)c3)cc2c1)N1CCC(N2C(=O)OCc3ccccc32)CC1
5. COc1cccn(CC(=O)NCc2cc3cc(C(=O)N4CCC(N5C(=O)OCc6ccccc65)CC4)ccc3o2)c1=O
6. O=C(c1ccc2oc(-c3cncc(Cn4cc(C(F)(F)F)ccc4=O)c3)cc2c1)N1CCC(N2C(=O)OCc3ccccc32)CC1
7. O=C(Cn1cc(C(F)(F)F)ccc1=O)NCc1nc2ccc(C(=O)N3CCC(N4C(=O)OCc5ccccc54)CC3)cc2s1

Out:
6.31
0.501
794
794
2.51
63.1
10

====

Experiment: Compound was tested for plasma clearance in rat
Assay type: ADME, organism-based
MEASURED ATTRIBUTE: clearance (mL/min/kg)
One number for each entry, in mL/min/kg.

Provide clearance values for the following items, in order.
1. O=C(Cn1cc(C(F)(F)F)ccc1=O)NCc1cc2cc(C(=O)N3CCC(N4C(=O)OCc5ccc(Cl)cc54)CC3)ccc2o1
2. O=C(Cn1cc(C(F)(F)F)ccc1=O)NCc1cc2cc(C(=O)N3CCC(N4C(=O)OCc5cccc(F)c54)CC3)ccc2o1
3. O=C(c1ccc2oc(-c3cccc(Cn4cc(C(F)(F)F)ccc4=O)c3)cc2c1)N1CCC(N2C(=O)OCc3ccccc32)CC1
4. O=C(Cn1ccc(N2CCOCC2)nc1=O)NCc1cc2cc(C(=O)N3CCC(N4C(=O)OCc5ccccc54)CC3)ccc2o1
5. O=C(Cn1cc(C(F)(F)F)ccc1=O)NCc1cc2cc(C(=O)N3CCC(N4C(=O)CCc5ccccc54)CC3)ccc2o1

Out:
21
11
7
17
13

Provide clearance values for the following items, in order.
1. CCOc1ccn(CC(=O)NCc2cc3cc(C(=O)N4CCC(N5C(=O)OCc6ccccc65)CC4)ccc3o2)c(=O)n1
2. O=C(Cn1cc(C(F)(F)F)ccc1=O)NCc1cc2cc(C(=O)N3CCC(N4C(=O)OCc5cc(F)ccc54)CC3)ccc2o1

Out:
1. 35
2. 17

====

Can you tell me clearance for the items I'm about to list?
Experiment: Tested for plasma clearance in dog
Assay type: ADME, organism-based, Canis lupus familiaris

MOLECULE: CCOc1ccn(CC(=O)NCc2cc3cc(C(=O)N4CCC(N5C(=O)OCc6ccccc65)CC4)ccc3o2)c(=O)n1
clearance: 0.72 L/h/kg

Consider now this further compound.
For this compound ( O=C(Cn1cc(C(F)(F)F)ccc1=O)NCc1cc2cc(C(=O)N3CCC(N4C(=O)OCc5ccccc54)CC3)ccc2o1 ), measured clearance is 0.48 L/h/kg

====

Assay: Compound was tested for lipophilicity
Type: physicochemical
Details: octanol/water
MEASURED ATTRIBUTE: logD
Numbers only.

For this compound ( O=C(Cn1cc(C(F)(F)F)ccc1=O)NCc1cc2cc(C(=O)N3CCC(N4C(=O)OCc5ccccc54)CC3)ccc2o1 ), measured logD is 2.16

====

Can you tell me log10 of Ki for the items I'm about to list?
Target: UniProtKB P30559
Sequence (P30559 whole entry): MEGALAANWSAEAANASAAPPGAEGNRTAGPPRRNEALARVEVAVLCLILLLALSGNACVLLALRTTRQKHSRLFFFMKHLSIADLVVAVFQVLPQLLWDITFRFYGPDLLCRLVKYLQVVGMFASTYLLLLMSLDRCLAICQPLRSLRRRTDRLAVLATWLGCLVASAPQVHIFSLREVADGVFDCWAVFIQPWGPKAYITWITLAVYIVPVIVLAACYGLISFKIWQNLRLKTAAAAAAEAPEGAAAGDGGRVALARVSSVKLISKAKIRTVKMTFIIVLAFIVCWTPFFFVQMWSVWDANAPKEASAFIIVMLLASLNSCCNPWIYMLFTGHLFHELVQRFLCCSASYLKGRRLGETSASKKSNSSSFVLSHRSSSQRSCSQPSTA
# log10 transformed; quantity=Ki; unit=nM

The following molecules have reported results that may help.
MOLECULE: O=C(Cn1cc(C(F)(F)F)ccc1=O)NCc1cc2cc(C(=O)N3CCC(N4C(=O)OCc5cc(F)ccc54)CC3)ccc2o1
SYSTEM TESTED: UniProtKB P30559
log10 of Ki: 0.80
//
MOLECULE: O=C(Cn1cc(C(F)(F)F)ccc1=O)NCc1cc2cc(C(=O)N3CCC(N4C(=O)CCc5ccccc54)CC3)ccc2o1
SYSTEM TESTED: UniProtKB P30559
log10 of Ki: 1.40
//
MOLECULE: O=C(Cn1cc(C(F)(F)F)ccc1=O)NCc1nc2cc(C(=O)N3CCC(N4C(=O)OCc5ccccc54)CC3)ccc2s1
SYSTEM TESTED: UniProtKB P30559
log10 of Ki: 1.90
//
MOLECULE: O=C(c1ccc2oc(CN3CCCC[C@H]3Cn3cc(C(F)(F)F)ccc3=O)cc2c1)N1CCC(N2C(=O)OCc3ccccc32)CC1
SYSTEM TESTED: UniProtKB P30559
log10 of Ki: 1.00
//
MOLECULE: O=C(Cn1cnc(C(F)(F)F)cc1=O)NCc1cc2cc(C(=O)N3CCC(N4C(=O)OCc5ccccc54)CC3)ccc2o1
SYSTEM TESTED: UniProtKB P30559
log10 of Ki: 0.60
//
MOLECULE: O=C(c1ccc2oc(-c3cccc(Cn4cc(C(F)(F)F)ccc4=O)n3)cc2c1)N1CCC(N2C(=O)OCc3ccccc32)CC1
SYSTEM TESTED: UniProtKB P30559
log10 of Ki: 1.00

Consider now this further molecule.
For this molecule ( Cn1ncc2c(=O)n(CC(=O)NCc3cc4cc(C(=O)N5CCC(N6C(=O)OCc7ccccc76)CC5)ccc4o3)cnc21 ), measured log10 of Ki is 0.10

====

Experiment: Tested for the pharmacokinetic parameter in rat and expressed as area under curve
Format: ADME, organism-based
Design: concentration or dose not given beside the values
Settings: in vivo
MEASURED ATTRIBUTE: AUC (ng·h/mL)
Give bare numbers, in ng·h/mL.

The following molecules have reported results that may help.
MOLECULE: O=C(c1ccc2oc(-c3cccc(Cn4cc(C(F)(F)F)ccc4=O)c3)cc2c1)N1CCC(N2C(=O)OCc3ccccc32)CC1
QUANTITATIVE RESULT: 5700
--
MOLECULE: O=C(c1ccc2oc(CN3CCC(n4cc(C(F)(F)F)ccc4=O)CC3)cc2c1)N1CCC(N2C(=O)OCc3ccccc32)CC1
QUANTITATIVE RESULT: 12000
--
MOLECULE: O=C(c1ccc2oc(-c3cncc(Cn4cc(C(F)(F)F)ccc4=O)c3)cc2c1)N1CCC(N2C(=O)OCc3ccccc32)CC1
QUANTITATIVE RESULT: 5400

Provide AUC values for the following items, in order.
1. O=C(c1ccc2oc(CN3CCC[C@@H](n4cc(C(F)(F)F)ccc4=O)C3)cc2c1)N1CCC(N2C(=O)OCc3ccccc32)CC1
2. O=C(c1ccc2oc(-c3cccc(Cn4cc(C(F)(F)F)ccc4=O)n3)cc2c1)N1CCC(N2C(=O)OCc3ccccc32)CC1

Out:
1: 150; 2: 1500

Entry source: ChEMBL document CHEMBL1135117
